experiment: Dynamic light scattering: LNP particle size and PDI; type: physicochemical; conditions: LNP compositions for in vivo mouse study; four formulations (F1-F4) pooled, or pools of four compounds
Binary label based on PDI with cut-off 0.1: below gives 1 (yes), not below gives 0 (no).

molecule	assigned.category
CCCCCCCC/C=C\CCCCCCCC(=O)OCC(COC(=O)CCCCCCC/C=C\CCCCCCCC)(COC(=O)CCCCCCC/C=C\CCCCCCCC)COC(=O)CCC(CCCCCC)OC(=O)NCCN1CCCC1 (stereo not shown)	0 (no)
CCCCC/C=C\C/C=C\CCCCCCCC(=O)OCC(COC(=O)CCCCCCC/C=C\C/C=C\CCCCC)(COC(=O)CCC(CCCCCC)OC(=O)NCCN1CCCC1)COC(=O)CCC(OCCCCCCCC)OCCCCCCCC (stereo not shown)	0 (no)
CCCCCCCCOC(CCC(=O)OCC(COC(=O)CCCCCCOC(=O)C(CCCC)CCCCCC)(COC(=O)CCC(CCCCCC)OC(=O)NCCN1CCCC1)COC(=O)CCC(OCCCCCCCC)OCCCCCCCC)OCCCCCCCC (stereo not shown)	1 (yes)
CCCCC/C=C\CCOC(=O)CCCCCCC(=O)OCC(COC(=O)CCCCCCC(=O)OCC/C=C\CCCCC)(COC(=O)CCCCCCC(=O)OCC/C=C\CCCCC)COC(=O)CCC(CCCCCC)OC(=O)NCCN1CCCC1 (stereo not shown)	0 (no)
CCCCC/C=C\CCOC(=O)CCCCC(=O)OCC(COC(=O)CCCCC(=O)OCC/C=C\CCCCC)(COC(=O)CCC(CCCCCC)OC(=O)NCCN1CCCC1)COC(=O)CC12CC3CC(CC(C3)C1)C2 (stereo not shown)	0 (no)
CCCCC/C=C\CCOC(=O)CCCCCC(=O)OCC(COC(=O)CCCCCCOC(=O)C(CCCC)CCCCCC)(COC(=O)CCCCCC(=O)OCC/C=C\CCCCC)COC(=O)CCC(CCCCCC)OC(=O)NCCN1CCCC1 (stereo not shown)	0 (no)
CCCCC/C=C\C/C=C\CCCCCCCC(=O)OCC(COC(=O)CCCCCCC/C=C\C/C=C\CCCCC)(COC(=O)CCCCCCC/C=C\C/C=C\CCCCC)COC(=O)CCC(CCCCCC)OC(=O)NCCN1CCCC1 (stereo not shown)	0 (no)
CCCCC/C=C\CCOC(=O)CCCCCC(=O)OCC(COC(=O)CCCCCC(=O)OCC/C=C\CCCCC)(COC(=O)CCC(CCCCCC)OC(=O)NCCN1CCCC1)COC(=O)CC12CC3CC(CC(C3)C1)C2 (stereo not shown)	1 (yes)
CCCCCCCC/C=C\CCCCCCCC(=O)OCC(COC(=O)CCCCCCC/C=C\CCCCCCCC)(COC(=O)CCC(CCCCCC)OC(=O)NCCN1CCCC1)COC(=O)CCC(OCCCCCCCC)OCCCCCCCC (stereo not shown)	1 (yes)
CCCCCCCC/C=C\CCCCCCCC(=O)OCC(COC(=O)CCCCCCC/C=C\CCCCCCCC)(COC(=O)CCC(CCCCCC)OC(=O)NCCN1CCCC1)COC(=O)CC12CC3CC(CC(C3)C1)C2 (stereo not shown)	1 (yes)
CCCCC/C=C\C/C=C\CCCCCCCC(=O)OCC(COC(=O)CCCCCCC/C=C\C/C=C\CCCCC)(COC(=O)CCC(CCCCCC)OC(=O)NCCN1CCCC1)COC(=O)CC12CC3CC(CC(C3)C1)C2 (stereo not shown)	0 (no)
CCCCC/C=C\CCOC(=O)CCCCCCC(=O)OCC(COC(=O)CCCCCCC(=O)OCC/C=C\CCCCC)(COC(=O)CCC(CCCCCC)OC(=O)NCCN1CCCC1)COC(=O)CCC(OCCCCCCCC)OCCCCCCCC (stereo not shown)	0 (no)
CCCCC/C=C\CCOC(=O)CCCCCCC(=O)OCC(COC(=O)CCCCCCC(=O)OCC/C=C\CCCCC)(COC(=O)CCC(CCCCCC)OC(=O)NCCN1CCCC1)COC(=O)CC12CC3CC(CC(C3)C1)C2 (stereo not shown)	0 (no)
